The following binders are listed with their measured pEC50 values.
target: T1, human Claudin18.2 (human); test: FACS, Claudin18.2-HEK293 cells
T1 construct: also called CLDN18.2
# log scale: pEC50 equals minus log10 of the concentration in mol/L

Here are 4 binders together with their reported answers.
chimeric 182D10F1 (antibody, human IgG1, kappa, V domains shown, chimeric, human IgG1/kappa constant regions) VH: QAYLQQSGAELVRSGASVKMSCKASGYTFSSYNMHWVKQTPGQGLEWIGYIYPGNGGTNYNQKFKGKATLTADTSSSTAYMQISSLTSEDSAVYFCLTGRGFTYWGQGTLVTVSA VL: DIVMTQSPSSLTVTAGEKVTMNCKSSQSLFNSGNQKNYLTWYQQKPGQPPKLLIYRASTRESGVPDRFTGSGSGTDFTLTISSVQAEDLAVYYCQNDYSYPLTFGVGTKLELKR; 8.88
chimeric 203A6C9 (antibody, human IgG1, kappa, V domains shown, chimeric, human IgG1/kappa constant regions) VH: QVQLKQSGPGLVQPSQSLSITCTVSGFSLTRYGVHWVRQSPGKGLEWLGVIWSGGNTDYNAAFISRLNIRKDNSKSQVFFKMNSLKPNDTAIYYCARAAYFGNSFDYWGQGTTLTVSS VL: DIVMTQSPSSLPVTAGEKVTMSCKSSQSLLNSGNQKNYLTWYQQKPGQPPKLLIYWASTRDSGVPDRFTGSGSGTDFTLTISSVQAEDLAVYYCQNNYIYPLTFGAGTKLELKR; 9.26
chimeric 265E6G2 (antibody, human IgG1, kappa, V domains shown, chimeric, human IgG1/kappa constant regions) VH: QAYLQQSGAELVRSGASVKMSCKASGYTFTSYNMHWVKQTPGQGLEWIGYIYPGNGGTNYNQKFKGKATLTADTSSSTAYMQISSLTSEDSAVYFCARDYYGNSFAYWGQGTLVTVSA VL: DLVMTQSPSSLTVTAGEKVTMSCKSSQSLLNSGNQKNYLTWYQQKPGQPPKLLIYWASTRESGVPDRFTGSGSGTDFTLTISNIQAEDLAVYYCQNDYSYPLPFGAGTKLELRR; 8.98
chimeric 370E2B12C3 (antibody, human IgG1, kappa, V domains shown, chimeric, human IgG1/kappa constant regions; also called 370E2B12C3-chimeric) VH: QVQLKESGPGLVAPSQSLSITCTVSGFSLTTYGVHWVRQPPGKGLEWLGVIWAGGSTNYNSALMSRVSINKDNSKSQVFIKMNSLQADDTALYYCARAAYYGNGLDYWGQGTTLTVSS VL: DIVMTQSPSSLTVTAGEKVTMSCKSSQTLLNSGNQKNYLTWYQQKPGQPPKLLIYWASTGESGVPDRFTGSGSGTDFTLTISSVQAEDLAVYFCQNAYFYPFTFGGGTKLEIKR; 9.10

The recorded pEC50 for entry chimeric 250F4G4 (antibody, human IgG1, kappa, V domains shown, chimeric, human IgG1/kappa constant regions) VH: QAYLQQSGAELVRSGASVKMSCKASGYTFTSHNMHWVKQTPGQGLEWIGYIYPGNGRTNYNQKFKGKATLTADTSSSTAYMQISSLTSEDSAVYFCTRDYYGNSFAYWGQGTLVTVSA VL: DIVMTQSPSSLTEKVGERVSMSCKSSQSLFNSGNQKNYLTWYQQKPGQPPKLLIYWASTRESGVPDRFTGSGSGTDFTLTISSVQAEDLAVYYCQNDYWYPFTFGAGTKLELKR equals 8.99

All values here come from patent US20220073643A1.
